system: HT29 colon; experiment: NCI-60 one-dose screen, 48 h; settings: 10 µM unless noted
The panel holds about 83,000 compounds, 20% with a hit somewhere; the sample as a whole holds those more often. Active and inactive are the calls of the source. The calls were made as follows: active = growth percent below 10; inactive = the rest.
Valid outcomes are listed here; reply with one: yes (1) for active, no (0) for inactive

Please share the test call associated with Cc1c(Cl)cccc1C(=O)Nc1nc2c(s1)CN(C(=O)Nc1cccc(C(F)(F)F)c1)CC2 . yes (1)

Please share the test call associated with Cc1nc2sc(C(=O)Nc3ccc(Cl)cc3)c(N)c2cc1C(O)c1ccccc1 (configuration not stated) . no (0)

Please share the test call associated with C=CC(C)(O)CC/C=C(\CO)C(=O)OC1C(C)OC(O[C@](C)(C=C)CC/C=C(\CO)C(=O)O[C@H]2C[C@@]3(C(=O)OC4OC(CO)C(O)C(O)C4OC4OC(C)C(OC5OC(CO)C(O)C5O)C(OC5OC(CO)C(O)C(O)C5O)C4O)C(CC2(C)C)C2=CCC4[C@@]5(C)CC[C@H](OC6OC(COC7OC(C)C(O)C(O)C7OC7OCC(O)C(O)C7O)C(O)C(O)C6NC(C)=O)C(C)(C)C5CC[C@@]4(C)[C@]2(C)C[C@H]3O)C(O)C1O (some centres not stated) . no (0)

Please share the test call associated with O=C1CC2C=CCN2C=C1NC(=O)C1CCCCC1 (configuration not stated) . no (0)

Please share the test call associated with Cc1cc(N2CCCCC2)nc(N2CCN(CC(=O)Nc3ccc4c(ccn4Cc4ccccc4)c3)CC2)n1 . no (0)

Please share the test call associated with C/C(=C(/c1ccc(Cl)cc1)c1ccc(OCCCN(C)C)cc1)c1ccc(Cl)cc1 . no (0)

Please share the test call associated with NS(=O)(=O)c1ccc(N/C=C/C(=O)c2cc3ccccc3oc2=O)cc1 . no (0)

* * *

system: M14 melanoma; assay: NCI-60 one-dose screen, 48 h; settings: 10 µM unless noted
This is part of a sample that, as a whole, favours compounds with a hit. Of some 83,000 tested, about 20% had one in any assay. Activity calls are given as the source filed them. Rule for the calls: active = growth percent below 10; inactive = the rest.
Valid outcomes are listed here; reply with one: active, inactive

Please share the test call associated with COc1cc(C(=O)c2c(N)ncn2-c2ccccc2)cc(OC)c1OC . inactive

Please share the test call associated with CC[C@H](Nc1nc(N)nc(C)c1C#N)c1nc2cccc(NCCCCCC(=O)NO)c2c(=O)n1-c1ccccc1 . inactive

Please share the test call associated with C[C@@H](CO)[C@@H]1CC[C@]2(C(=O)N3CCN(C)CC3)CC[C@]3(C)[C@H](CC[C@@H]4[C@@]5(C)CC[C@H](O)C(C)(C)[C@@H]5CC[C@]43C)[C@@H]12 . inactive

Please share the test call associated with CCN1C(=S)N(CC)C2C1NC(=S)N2/N=C/C=C/c1ccccc1OC (configuration not stated) . inactive

Please share the test call associated with O=C1/C(=C/c2ccccc2[N+](=O)[O-])COc2ccc(O)cc21 . active

Please share the test call associated with Cc1ccc(C)c2c1C(O)(C#Cc1ccccc1)c1ccccc1C2(O)C#Cc1ccccc1 (configuration not stated) . inactive

Please share the test call associated with COc1cc(C2Cc3ncccc3-c3[nH]c(=O)c4cccnc4c32)cc(OC)c1OC (configuration not stated) . inactive

Please share the test call associated with NS(=O)(=O)c1ccc(N/C=C/C(=O)c2cc3ccccc3oc2=O)cc1 . inactive

Please share the test call associated with COc1cc(-c2nc(NC(C)=O)sc2-c2ccnc(NCCNS(=O)(=O)c3ccccc3)n2)ccc1Cl . active

Please share the test call associated with COc1cccc2c(N=NC(=O)c3ccc(S(N)(=O)=O)cc3)c(O)[nH]c12 . inactive

Please share the test call associated with COc1cc(-c2nc3ccc(C)cc3[nH]2)ccc1OCC(=O)N=Nc1c(O)[nH]c2ccc(Cl)cc12 . active

Please share the test call associated with O=C1/C(=C/c2ccccc2)CN(C(=O)c2cccnc2)C/C1=C\c1ccccc1 . active

Please share the test call associated with Cc1ccc(N=Nc2c(N)nn(-c3ccccc3)c2N)cc1 . active

Please share the test call associated with O=C(CCl)Nc1ccc2c(Nc3cc(O)ccc3Cl)ncnc2c1 . active

Please share the test call associated with COc1cccc(/C=C/C(=O)c2cc3c(N)c(C(=O)Nc4ccccc4C)sc3nc2C)c1 . inactive

Please share the test call associated with COc1ccc(-c2cc(C(=O)N3N=C(c4ccc(N)cc4)CC3c3ccccc3)c3ccccc3n2)cc1 (configuration not stated) . inactive

Please share the test call associated with CCOC(=O)/C=C/c1c(C)[nH]c(=O)[nH]c1=O . inactive

Please share the test call associated with CCCCn1sc(=O)n(Cc2ccc(CNC(=O)OCc3ccc4c(Br)cc(Br)c(O)c4n3)cc2)c1=O . inactive

Please share the test call associated with c1ccc2cc(Cn3c[n+](Cc4ccc5ccccc5c4)c4ccccc43)ccc2c1 . active

Please share the test call associated with O=C(c1ccc(Cl)cc1Cl)N1c2ccccc2Sc2ccccc21 . inactive

Please share the test call associated with Cc1cc(C)c(-c2c(O)c(Br)c(-c3c(C)cc(C)c(Br)c3C)c(O)c2Br)c(C)c1Br . inactive

Please share the test call associated with COc1ccc(-c2oc(=O)ccc2-c2cc(OC)c(OC)c(OC)c2)cc1O . active

Please share the test call associated with CC(C)c1ccc(-n2c(=S)[nH]c3sc4c(c3c2=O)CCC(=O)C4)cc1 . inactive

Please share the test call associated with C#Cc1cccc(Oc2ccc(NC(=O)CCl)cc2)c1 . inactive

Please share the test call associated with COc1ccc(C(O)c2cc3c(N)c(C(=O)Nc4cccc(Cl)c4)sc3nc2C)cc1 (configuration not stated) . inactive

Please share the test call associated with Cc1cc(F)ccc1S(=O)(=O)Nc1cc(-c2c(O)ccc3ccccc23)c(O)c2ccccc12 . inactive

Please share the test call associated with COc1cc(/C=C/c2cc(/C=C/c3ccc(O)c(OC)c3)n(C(=O)Nc3ccc(F)cc3)n2)ccc1O . active

Please share the test call associated with CCOC(=O)Nc1nc2ccc(SCC(C)C)cc2s1 . inactive

Please share the test call associated with CC(C)=CC(=O)N[C@@H]1CC2CCC3C(CC[C@@]4(C)C3CC[C@@H]4C(C)N(C)C)[C@@]2(C)C[C@@H]1O (some centres not stated) . inactive

Please share the test call associated with COc1ccc2c(c1)c(-c1nonc1-c1cn(C)c3ccc(OC)cc13)cn2C . inactive

Please share the test call associated with CCOC(=O)c1c(C)nc2c(c1N)CC(=O)N2Cc1cc(OC)c(OC)c(OC)c1 . inactive

Please share the test call associated with CCCCCCNc1nc(NCCCCCC)c2[nH]c(NCCCCCC)nc2n1 . inactive

Please share the test call associated with COc1cccc(/C=C/C(=O)c2cc3c(N)c(C(=O)Nc4cccc(Cl)c4C)sc3nc2C)c1 . active

Please share the test call associated with Cc1ncc(C(=O)Nc2ccc(CN3CCN(C)CC3)c(C(F)(F)F)c2)cc1C#Cc1cnc(N)c2cnccc12 . active

Please share the test call associated with CC(C)(C)c1cc(C=Nc2cccc(C(F)(F)F)c2)c(O)c(C(C)(C)C)c1 . inactive

Please share the test call associated with C[C@H]1[C@H](C)CC[C@]2(C(=O)O)CC[C@]3(C)C(=CC[C@@H]4[C@@]5(C)C[C@@H](Cc6cn([C@@H]7O[C@H](CO)[C@@H](O)[C@H](O)[C@H]7O)nn6)[C@H](O)C(C)(C)[C@@H]5CC[C@]43C)[C@H]12 . inactive

Please share the test call associated with COc1ccc(C2=Nc3c(N)ncnc3NC(c3cccc(Nc4ccnc5cc(C(F)(F)F)ccc45)c3)C2)cc1 (configuration not stated) . inactive

* * *

tested on: RXF 393 renal; assay: NCI-60 one-dose screen, 48 h; conditions: 10 µM unless noted
This is part of a sample that, as a whole, favours compounds with a hit. Of some 83,000 tested, about 20% had one in any assay. Calls of active or inactive are those of the source. How the source made its calls: active means growth percent below 10; inactive means the rest.
Valid outcomes are listed here; reply with one: True = active, False = inactive

Please share the test call associated with COc1ccc2c(c1)c(-c1nonc1-c1c[nH]c3ccc(Br)cc13)cn2C . False

Please share the test call associated with Cc1cccc(N2CCN(C(=S)c3ccc4c(c3)OCO4)CC2)c1 . True

Please share the test call associated with Cn1cc(-c2csc(-c3cn(C)c4ccc(Br)cc34)n2)c2cnccc21 . True

Please share the test call associated with Cc1cc(C)c(-c2c(O)c(Br)c(-c3c(C)cc(C)c(Br)c3C)c(O)c2Br)c(C)c1Br . True

Please share the test call associated with N#CCC1=NC(c2cccs2)=Nc2ccccc2S1 . False

* * *

tested on: SK-MEL-2 melanoma; assay: NCI-60 one-dose screen, 48 h (100 = growth as untreated, 0 = no growth, -100 = all killed); details: 10 µM unless noted
This is part of a sample that, as a whole, favours compounds with a hit. Of some 83,000 tested, about 20% had one in any assay.
parameter-measured: growth (%)
// note: answer is a bare numeric in %

Memo: CC(/C=C1\SC(=S)N(CC(=O)NC(Cc2c[nH]c3ccccc23)C(=O)O)C1=O)=C\c1ccccc1 (centres undefined) , reported growth: 110

Memo: Cc1ccc(O)c(NC(=O)c2ccc(CNc3ccnc(C(F)(F)F)c3)cc2)c1 , reported growth: 79.2

Memo: c1ccc2cc(Cn3c[n+](Cc4ccc5ccccc5c4)c4ccccc43)ccc2c1 , reported growth: -61.7

Memo: C[C@H]1[C@H](C)CC[C@]2(C(=O)O)CC[C@]3(C)C(=CC[C@@H]4[C@@]5(C)C[C@@H](Cc6cn([C@@H]7O[C@H](CO)[C@@H](O)[C@H](O)[C@H]7O)nn6)[C@H](O)C(C)(C)[C@@H]5CC[C@]43C)[C@H]12 , reported growth: 99.9

Memo: CC(=O)Nc1c(Cl)cc(Cl)c2c1Cc1cc([N+](=O)[O-])ccc1-2 , reported growth: 105

Memo: Cc1cc(C(=O)Nc2cc(Nc3ncccc3-c3ncnc4nc[nH]c34)ccc2F)cc(C(F)(F)F)c1 , reported growth: 6.72

Memo: CC(C(=O)O)n1c(O)c(C=Nc2cccnc2)sc1=S (centres undefined) , reported growth: 114

Memo: CCCCCCCCCCCCCCCCCCOc1ccccc1CC(=O)NCC[N+]1(C)CCOCC1 , reported growth: 74.6

Memo: CN1CCN(Cc2ccc(NC(=O)c3cncc(C#Cc4cncc5[nH]ncc45)c3)cc2C(F)(F)F)CC1 , reported growth: -52.4
